- assayed.target: E. coli DNA gyrase (Escherichia coli, UniProt P0AES4+P0AES6)
- Construct: purchased John Innes Enterprises Ltd. (John Innes Centre, UK)
- procedure.details: DNA gyrase inhibition assay (supercoiling)
- Format: biochemical
- conditions: E. coli DNA gyrase supercoiling, visual inspection of gels; read-out: DNA Gyrase IC50 (converted)
measured.quantity: IC50 (µM)

>  <compound>
COc1ccc2nccc(-n3cc4c(n3)CCC(NCC(=O)Nc3ccc(C)cc3)C4)c2n1 (centres unmarked) [Example 60]

>  <measured.quantity>
IC50

>  <measurement.unit>
µM

>  <value.relation.sign>
>

>  <recorded.value>
36.2

$$$$
>  <compound>
COc1ccc2nccc(-n3cc4c(n3)CCC(NCc3ccc(N5CCCCC5)cc3)C4)c2n1 (centres unmarked) [Example 86]

>  <measured.quantity>
IC50

>  <measurement.unit>
µM

>  <value.relation.sign>
=

>  <recorded.value>
4.27

$$$$
>  <compound>
COc1ccc2nccc(-n3cc4c(n3)CCC(NC(=O)c3ccc(C)c([N+](=O)[O-])c3)C4)c2c1 (centres unmarked) [Example 111]

>  <measured.quantity>
IC50

>  <measurement.unit>
µM

>  <value.relation.sign>
>

>  <recorded.value>
35

$$$$
>  <compound>
COc1ccc2nccc(-n3cc4c(n3)CCC(NC(=O)c3cc5c(cc3F)SCC(=O)N5)C4)c2n1 (centres unmarked) [Example 5]

>  <measured.quantity>
IC50

>  <measurement.unit>
µM

>  <value.relation.sign>
=

>  <recorded.value>
0.238

$$$$
>  <compound>
COc1ccc2nccc(-n3cc4c(n3)CCC(NC(=O)c3ccc(Br)s3)C4)c2c1 (centres unmarked) [Example 72]

>  <measured.quantity>
IC50

>  <measurement.unit>
µM

>  <value.relation.sign>
>

>  <recorded.value>
33.1

$$$$
>  <compound>
COc1ccc2nccc(-n3cc4c(n3)CCC(NCc3ccc5c(c3)OCCO5)C4)c2n1 (centres unmarked) [Example 42]

>  <measured.quantity>
IC50

>  <measurement.unit>
µM

>  <value.relation.sign>
=

>  <recorded.value>
2.25

$$$$
>  <compound>
COc1ccc2nccc(-n3cc4c(n3)CCC(NC(=O)/C=C/c3cc(F)cc(F)c3)C4)c2n1 (centres unmarked) [Example 11]

>  <measured.quantity>
IC50

>  <measurement.unit>
µM

>  <value.relation.sign>
=

>  <recorded.value>
4.33

$$$$
>  <compound>
COc1ccc2nccc(-n3cc4c(n3)CCC(NC(=O)c3cc5ccccc5o3)C4)c2c1 (centres unmarked) [Example 25]

>  <measured.quantity>
IC50

>  <measurement.unit>
µM

>  <value.relation.sign>
>

>  <recorded.value>
36.5

$$$$
